A collection of binders and their measured MCF
# system: T1, human HER2 (human, UniProt P04626 23-1255)
# T1 construct: also called hHER2
# assay-name: FACS CHO-HER2, 2000 nM
Form: value (number only, do not type unit).

{"columns": ["binder", "MCF"],
 "data": [
  ["18F05 (VHH, also called 18F5) VHH: EVQLVESGGGLVQPGGSLRLSCVASGFTFSSYWMYWVRQAPGKGVEWVSAISPGGVERYTDSVKGRFTISRDNAKNTLYLQMNSLKSEDTAMYYCARLTSFATPESQGTQVTVSS", 256]
]}

Prompt: Could you tell me which MCF is on file for 23F05 (VHH) VHH: EVQLVESGGGLVQAGGSLRLSCAASGFTFDGYAIGWFRQAPGKEREGVSCISGGDGRSYYADSVKGRFTVSSDNAKNTLYLEMNSLKPEDTAVYYCAVIWGPYCSDSYEYLYEYDYWGQGTQVTVSS ?
Response: 832

Prompt: Could you tell me which MCF is on file for 21F06 (VHH, c-myc, His6-tagged form as expressed; also called 21F6; HER3MS21F06) VHH: EVQLVESGGGLVQAGGSLRLSCAASGRTYYLNAMGWFRQGPGKDREFVAAIDWSDGNKDYADSVKGRFTISRDNAKNTVYLQMNSLKPEDTAVYYCAADTPPWGPMIYIESYDSWGQGTQVTVSS ?
Response: 409
